Molecular target: human NaV1.8 (Homo sapiens)
Sequence (Q9Y5Y9 whole entry): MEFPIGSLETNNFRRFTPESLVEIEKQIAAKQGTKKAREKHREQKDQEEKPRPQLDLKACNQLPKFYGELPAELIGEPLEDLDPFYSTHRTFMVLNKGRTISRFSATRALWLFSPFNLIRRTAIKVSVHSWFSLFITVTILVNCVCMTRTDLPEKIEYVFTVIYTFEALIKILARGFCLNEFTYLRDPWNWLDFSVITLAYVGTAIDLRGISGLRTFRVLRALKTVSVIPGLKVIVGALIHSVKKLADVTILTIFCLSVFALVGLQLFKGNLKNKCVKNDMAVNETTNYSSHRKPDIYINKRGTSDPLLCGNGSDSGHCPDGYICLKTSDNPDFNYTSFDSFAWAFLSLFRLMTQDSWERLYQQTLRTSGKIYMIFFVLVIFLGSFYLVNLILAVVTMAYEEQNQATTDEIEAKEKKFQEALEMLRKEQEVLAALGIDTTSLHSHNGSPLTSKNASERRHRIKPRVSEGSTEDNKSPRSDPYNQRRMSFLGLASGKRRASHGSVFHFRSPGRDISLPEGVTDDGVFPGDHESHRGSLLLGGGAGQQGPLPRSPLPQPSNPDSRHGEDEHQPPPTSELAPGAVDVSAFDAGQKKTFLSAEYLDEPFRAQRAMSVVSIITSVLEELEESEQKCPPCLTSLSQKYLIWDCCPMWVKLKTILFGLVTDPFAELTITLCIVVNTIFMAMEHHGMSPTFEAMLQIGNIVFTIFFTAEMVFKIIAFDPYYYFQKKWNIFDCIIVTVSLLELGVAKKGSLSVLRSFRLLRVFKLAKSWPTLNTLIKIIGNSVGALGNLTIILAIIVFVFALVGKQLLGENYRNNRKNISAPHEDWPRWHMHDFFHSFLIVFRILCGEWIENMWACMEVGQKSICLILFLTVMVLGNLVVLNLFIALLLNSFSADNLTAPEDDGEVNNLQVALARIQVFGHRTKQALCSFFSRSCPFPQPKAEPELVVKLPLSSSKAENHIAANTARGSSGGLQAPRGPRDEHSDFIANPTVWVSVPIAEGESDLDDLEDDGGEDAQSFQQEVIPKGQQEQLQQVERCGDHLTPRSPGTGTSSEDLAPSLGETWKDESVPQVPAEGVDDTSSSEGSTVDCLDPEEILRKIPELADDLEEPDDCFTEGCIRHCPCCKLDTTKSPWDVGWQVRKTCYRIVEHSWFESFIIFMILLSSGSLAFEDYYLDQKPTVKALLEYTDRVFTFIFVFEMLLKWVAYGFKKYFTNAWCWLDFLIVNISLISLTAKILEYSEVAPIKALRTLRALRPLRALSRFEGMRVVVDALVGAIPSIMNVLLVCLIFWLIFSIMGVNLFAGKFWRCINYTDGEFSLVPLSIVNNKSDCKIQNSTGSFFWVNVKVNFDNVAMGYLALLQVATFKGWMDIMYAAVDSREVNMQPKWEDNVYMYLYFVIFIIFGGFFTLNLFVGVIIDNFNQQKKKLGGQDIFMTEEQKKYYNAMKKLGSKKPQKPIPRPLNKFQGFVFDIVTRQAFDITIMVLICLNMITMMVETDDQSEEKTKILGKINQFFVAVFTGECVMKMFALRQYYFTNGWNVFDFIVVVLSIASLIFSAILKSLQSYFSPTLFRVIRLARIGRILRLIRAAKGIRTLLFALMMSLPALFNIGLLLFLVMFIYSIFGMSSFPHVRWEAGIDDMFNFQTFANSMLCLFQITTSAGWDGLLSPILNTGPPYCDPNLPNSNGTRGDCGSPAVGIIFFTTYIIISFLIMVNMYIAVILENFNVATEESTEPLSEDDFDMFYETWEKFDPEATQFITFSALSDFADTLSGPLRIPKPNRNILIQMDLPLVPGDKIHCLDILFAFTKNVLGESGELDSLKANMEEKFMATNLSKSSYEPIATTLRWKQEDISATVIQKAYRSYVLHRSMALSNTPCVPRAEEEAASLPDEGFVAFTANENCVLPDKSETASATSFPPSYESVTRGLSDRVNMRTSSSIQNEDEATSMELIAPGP
Experiment: Electrophysiology: automated whole-cell voltage-clamp (patch clamp) recordings of sodium currents, Qube384
Settings: HEK-NaV1.8 (NM 006514.1) with b3 recombinant cell line, multi hole plates, ambient room temperature, read-out: Potency category (human NaV1.8 IC50)
IC50 overview

Would you please look over these solved cases?
>  <MOLECULE>
CC(F)(F)c1nn(CC2CC(F)(F)C2)c(C(=O)Nc2ccnc(C(=O)O)c2)c1C(F)(F)F [Example 7]

>  <TARGET>
human NaV1.8 (Homo sapiens)

>  <IC50>
1000 to 10000 nM

$$$$
>  <MOLECULE>
CC(F)(F)c1nn(CC2CC(F)(F)C2)c(C(=O)Nc2ccc(C(=O)O)nc2)c1C(F)(F)F [Example 8]

>  <TARGET>
human NaV1.8 (Homo sapiens)

>  <IC50>
100 to 1000 nM

$$$$
>  <MOLECULE>
Cc1c(C(C)(F)F)nn(C[C@H]2CCC(F)(F)C2)c1C(=O)Nc1cc[n+]([O-])c(C(N)=O)c1 [Example 1b]

>  <TARGET>
human NaV1.8 (Homo sapiens)

>  <IC50>
100 to 1000 nM

$$$$
>  <MOLECULE>
O=C(O)c1cc(NC(=O)c2c(C(F)(F)F)c(C3CC3)nn2CC2CCC(F)(F)CC2)ccn1 [Example 9]

>  <TARGET>
human NaV1.8 (Homo sapiens)

>  <IC50>
100 to 1000 nM

$$$$

Query string: Look up and report IC50, with human NaV1.8 (Homo sapiens) as system, for Cc1c(C(C)(F)F)nn(CC2(C)CCC(F)(F)C2)c1C(=O)Nc1cc[n+]([O-])c(C(N)=O)c1 (single isomer, unassigned) [Example 5a]
Result string: ≤ 100 nM

Query string: // fetch IC50; item: Cc1c(C(C)(F)F)nn(C[C@@H]2CCC(F)(F)C2)c1C(=O)Nc1cc[n+]([O-])c(C(N)=O)c1 [Example 1a] ; system: human NaV1.8 (Homo sapiens)
Result string: 100 to 1000 nM

Query string: Give reported IC50 for Cc1c(C(C)(F)F)nn(CC2CC(F)(F)C2)c1C(=O)Nc1cc[n+]([O-])c(C(N)=O)c1 [Example 3] (human NaV1.8 (Homo sapiens))
Result string: 100 to 1000 nM

Query string: Consider the molecule Cc1c(C(C)(F)F)nn(CC2(C)CC(F)(F)C2)c1C(=O)Nc1cc[n+]([O-])c(C(N)=O)c1 [Example 4] tested on human NaV1.8 (Homo sapiens); state its IC50.
Result string: ≤ 100 nM

Query string: Determine reported IC50 for CP(C)(=O)c1cc(NC(=O)c2c(C(F)(F)F)cnn2CC2CCCCC2)ccn1 [Example 10] ; test system: human NaV1.8 (Homo sapiens).
Result string: 100 to 1000 nM
